Value source: ChEMBL document CHEMBL1136537

Organism: Sus scrofa
Assay: In vitro concentration to suppress electrically stimulated contraction in isolated Landrance pig bladder detrusor strips
Assay type: functional
quantity.kind: EC50 (µM)

>>> df
                            chem_smiles  numeric_readout
0  N#Cc1c(N2CCC[C@H](O)C2)[nH]c2cccnc12             9.26
1         Cc1c(-c2ccccc2F)[nH]c(N)c1C#N             63.1
2        N#Cc1c(N2CCCCCC2)[nH]c2cccnc12             25.9
3              CN(C)c1[nH]c2cccnc2c1C#N             23.5
4         N#Cc1c(N2CCCCC2)[nH]c2cccnc12             24.8

###

Biological target: Calcium-activated potassium channel subunit alpha-1 (Homo sapiens)
Sequence (Q12791 whole entry): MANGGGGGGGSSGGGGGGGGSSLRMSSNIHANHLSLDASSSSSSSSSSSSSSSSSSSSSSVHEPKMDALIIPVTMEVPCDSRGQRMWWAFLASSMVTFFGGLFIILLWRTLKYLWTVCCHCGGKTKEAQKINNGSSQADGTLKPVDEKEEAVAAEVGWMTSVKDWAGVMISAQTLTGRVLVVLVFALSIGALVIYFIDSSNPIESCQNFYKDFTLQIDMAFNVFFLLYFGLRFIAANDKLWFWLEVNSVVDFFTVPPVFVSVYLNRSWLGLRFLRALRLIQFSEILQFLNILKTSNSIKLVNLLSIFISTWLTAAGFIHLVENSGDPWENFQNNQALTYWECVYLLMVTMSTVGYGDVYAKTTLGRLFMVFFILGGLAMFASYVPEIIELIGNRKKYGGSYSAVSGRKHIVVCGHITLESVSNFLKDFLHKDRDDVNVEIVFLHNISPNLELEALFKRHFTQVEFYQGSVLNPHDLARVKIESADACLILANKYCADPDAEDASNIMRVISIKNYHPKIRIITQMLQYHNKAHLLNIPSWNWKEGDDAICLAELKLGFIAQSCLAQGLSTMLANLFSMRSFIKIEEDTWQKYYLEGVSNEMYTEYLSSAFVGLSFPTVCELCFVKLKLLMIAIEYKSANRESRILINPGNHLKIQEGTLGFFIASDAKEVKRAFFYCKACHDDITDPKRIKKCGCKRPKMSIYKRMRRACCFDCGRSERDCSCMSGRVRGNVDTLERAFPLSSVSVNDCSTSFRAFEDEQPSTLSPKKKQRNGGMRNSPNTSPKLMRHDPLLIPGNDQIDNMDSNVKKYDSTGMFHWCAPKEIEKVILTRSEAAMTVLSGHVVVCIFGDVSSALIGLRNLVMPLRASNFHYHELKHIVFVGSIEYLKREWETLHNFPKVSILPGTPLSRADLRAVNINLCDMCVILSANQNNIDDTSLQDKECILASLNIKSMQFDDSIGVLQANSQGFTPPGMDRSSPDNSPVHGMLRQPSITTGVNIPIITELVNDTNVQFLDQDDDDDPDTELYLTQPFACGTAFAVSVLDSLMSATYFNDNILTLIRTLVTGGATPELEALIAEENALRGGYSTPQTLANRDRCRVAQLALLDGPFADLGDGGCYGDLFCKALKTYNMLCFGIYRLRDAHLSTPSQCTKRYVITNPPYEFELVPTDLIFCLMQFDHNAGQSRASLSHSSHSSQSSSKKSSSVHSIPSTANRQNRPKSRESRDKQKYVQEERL
Experiment: BKca channel opening activity in HEK293 cells stably transfected with BKca alpha subunits at 10 uM concentration using a [86Rb+] efflux assay
Format: cell-based
quantity.kind: Response (%)

>>> print(df.to_string())
                                 chem_smiles  quantity_kind  units_symbol  numeric_readout
 0             N#Cc1c(N2CCCCC2)[nH]c2cccnc12       Response             %             3.02
 1                   N#Cc1c(Cl)[nH]c2cccnc12       Response             %                0
 2           CN1CCCN(c2[nH]c3cccnc3c2C#N)CC1       Response             %                0
 3             N#Cc1c(N2CCOCC2)[nH]c2cccnc12       Response             %               62
 4              CCCN(CCO)c1[nH]c2cccnc2c1C#N       Response             %                0
 5                  CN(C)c1[nH]c2cccnc2c1C#N       Response             %               60
 6            CN1CCN(c2[nH]c3cccnc3c2C#N)CC1       Response             %                0
 7            N#Cc1c(N2CCCCCC2)[nH]c2cccnc12       Response             %               61
 8  C[C@@H]1CC[C@@H](C)N1c1[nH]c2cccnc2c1C#N       Response             %                0
 9        N#Cc1c(N2CCC[C@H]2CO)[nH]c2cccnc12       Response             %                0
10      COC(=O)C1CCN(c2[nH]c3cccnc3c2C#N)CC1       Response             %               55
11          N#Cc1c(N2CCC(O)CC2)[nH]c2cccnc12       Response             %               28
12           N#Cc1c(N2CCCCCCC2)[nH]c2cccnc12       Response             %                0

###

Molecular target: Calcium-activated potassium channel subunit alpha-1 (Homo sapiens)
Assay: [86Rb+] efflux induced by BKca alpha subunits expressed in HEK293 cells at 10 uM
Assay type: cell-based
Hi! Could you tag entries with EC50 below 7 µM as 1, and those at or above as 0? Much appreciated.

>>> df
                             chem_smiles  class_assignment
 0         N#Cc1c(-n2ccnc2)[nH]c2cccnc12                 1
 1          N#Cc1c(N2CCCC2)[nH]c2cccnc12                 0
 2              CN(C)c1[nH]c2cccnc2c1C#N                 1
 3         N#Cc1c(N2CCOCC2)[nH]c2cccnc12                 1
 4                N#Cc1c(O)[nH]c2cccnc12                 0
 5  N#Cc1c(N2CC3CCC(CC3)C2)[nH]c2cccnc12                 1
 6  N#Cc1c(N2CCC[C@H](O)C2)[nH]c2cccnc12                 1
 7      N#Cc1c(N2CCC(O)CC2)[nH]c2cccnc12                 0
 8        N#Cc1c(N2CCCCCC2)[nH]c2cccnc12                 1
 9  COC(=O)C1CCN(c2[nH]c3cccnc3c2C#N)CC1                 0
10        CN(C)CCN(C)c1[nH]c2cccnc2c1C#N                 1

###

Reported Efficacy values follow for various compounds
Species: Sus scrofa
Experiment: In vitro maximal efficacy in stable twitch response in isolated Landrace pig bladder detrusor strips relative to P-1075
quantity.kind: Efficacy (%)

In [3]: df
Out[3]:
                            chem_smiles  quantity_kind  units_symbol  numeric_readout
0              CN(C)c1[nH]c2cccnc2c1C#N       Efficacy             %               58
1  N#Cc1c(N2CCC[C@H](O)C2)[nH]c2cccnc12       Efficacy             %               31
2        N#Cc1c(N2CCCCCC2)[nH]c2cccnc12       Efficacy             %               63
3         Cc1c(-c2ccccc2F)[nH]c(N)c1C#N       Efficacy             %               93
4         N#Cc1c(N2CCCCC2)[nH]c2cccnc12       Efficacy             %               67
